# protocol-summary: clinical
# test-conditions: male, human, in vivo, po, 1000 mg
observed-property: Tmax
A complete answer gives the number and then names the unit.

Find the measured Tmax of OC1C(O)C(O)C(O)C(O)C1O (stereo not shown) and report it.
3.25 h

###

# protocol-summary: CSF and plasma levels at end of 14 day repeat dose study in dogs
# Type: in vivo, dog
# test-conditions: dog, CSF, oral, after 14 days dosing, Dose 100 mg/kg, read-out: CSF level at 24 h
observed-property: concentration at 24 h
A complete answer gives the number and then names the unit.

Find the measured concentration at 24 h of OC1C(O)C(O)C(O)C(O)C1O (stereo not shown) [AZD-103, scyllo-inositol] and report it.
7500 ng/mL

###

# protocol-summary: Brain penetrance: plasma and CSF pharmacokinetics after single oral doses in dogs
# Type: in vivo, dog
# test-conditions: dog, CSF, single oral dose 20 mg/kg
observed-property: Tmax
A complete answer gives the number and then names the unit.

Find the measured Tmax of OC1C(O)C(O)C(O)C(O)C1O (stereo not shown) and report it.
4 h

###

# protocol-summary: in vivo
# test-conditions: rat, po, 50 mg/kg
observed-property: AUC(0-t)
A complete answer gives the number and then names the unit.

Find the measured AUC(0-t) of OC1C(O)C(O)C(O)C(O)C1O (stereo not shown) and report it.
163 µg·h/mL

###

# protocol-summary: Brain penetrance: plasma and CSF pharmacokinetics after single oral doses in dogs
# Assay type: in vivo, dog
# test-conditions: dog, CSF, single oral dose 80 mg/kg
observed-property: Tmax (h)
Field format: number, assumed h, no unit text.

Find the measured Tmax of OC1C(O)C(O)C(O)C(O)C1O (stereo not shown) and report it.
2.8

###

# protocol-summary: in vivo
# test-conditions: dog, po, 150 mg/kg
observed-property: AUC(0-t)
A complete answer gives the number and then names the unit.

Find the measured AUC(0-t) of OC1C(O)C(O)C(O)C(O)C1O (stereo not shown) and report it.
523 µg·h/mL

###

# protocol-summary: clinical
# test-conditions: male, human, in vivo, po, 5000 mg
observed-property: Cmax
A complete answer gives the number and then names the unit.

Find the measured Cmax of OC1C(O)C(O)C(O)C(O)C1O (stereo not shown) and report it.
110 µg/mL

###

# protocol-summary: in vivo
# test-conditions: dog, po, 15 mg/kg
observed-property: Cmax (ng/mL)
Field format: number, assumed ng/mL, no unit text.

Find the measured Cmax of OC1C(O)C(O)C(O)C(O)C1O (stereo not shown) [AZD-103, scyllo-inositol] and report it.
10000

###

# protocol-summary: in vivo
# test-conditions: rat, po, 50 mg/kg
observed-property: half-life (h)
Field format: number, assumed h, no unit text.

Find the measured half-life of OC1C(O)C(O)C(O)C(O)C1O (stereo not shown) and report it.
2.4

###

# protocol-summary: in vivo
# test-conditions: rat, po, 15 mg/kg
observed-property: AUC(0-t) (ng·h/mL)
Field format: number, assumed ng·h/mL, no unit text.

Find the measured AUC(0-t) of OC1C(O)C(O)C(O)C(O)C1O (stereo not shown) [AZD-103, scyllo-inositol] and report it.
39700

###

# protocol-summary: in vivo
# test-conditions: dog, po, 15 mg/kg
# Description: Three studies were performed to investigate the pharmacokinetics of oral administration of a scyllo-cyclohexanehexyl (Table 1): Two studies have investigated the single dose PK of oral administration of a scyllo-cyclohexanehexyl in dogs. The 14 day study investigated 18 animals. On Day 1 of this study Cmax and AUC values increased proportionally with dose level of a scyllo-cyclohexanehexyl. […] The extensive brain penetrance of the scyllo-cyclohexanhexyl (see below) may be relevant in this regard.
observed-property: CL/F

Find the measured CL/F of OC1C(O)C(O)C(O)C(O)C1O (stereo not shown) and report it.
3.04 mL/min/kg

###

# protocol-summary: Single oral and intravenous dose pharmacokinetics, dose range-finding study in beagle dogs
# Type: in vivo, beagle dog
# test-conditions: beagle, dog, plasma; dogs, single oral dose 80 mg/kg
observed-property: Cmax

Find the measured Cmax of OC1C(O)C(O)C(O)C(O)C1O (stereo not shown) and report it.
69 µg/mL

###

# protocol-summary: in vivo
# test-conditions: rat, po, 50 mg/kg
observed-property: Cmax at 28 days (µg/mL)
Field format: number, assumed µg/mL, no unit text.

Find the measured Cmax at 28 days of OC1C(O)C(O)C(O)C(O)C1O (stereo not shown) and report it.
59.4

###

# protocol-summary: Single oral and intravenous dose pharmacokinetics, dose range-finding study in beagle dogs
# Format: in vivo, beagle dog
# test-conditions: beagle, dog, plasma; dogs, single intravenous dose 240 mg/kg
observed-property: MRT (h)
Field format: number, assumed h, no unit text.

Find the measured MRT of OC1C(O)C(O)C(O)C(O)C1O (stereo not shown) [AZD-103, scyllo-inositol] and report it.
3.3

###

# protocol-summary: in vivo
# test-conditions: dog, po, 50 mg/kg
# Method: Plasma PK of a scyllo-cyclohexanhexyl in dogs was assessed after 14 days oral dosing of 15, 50 and 150 mg/kg, administered twice daily. As on Day 1 of this study Cmax and AUC values increased proportionally with dose level of scyllo-cyclohexanehexyl. However, dose-normalised exposures appeared to decrease with dose. This contrasts with positive trend observed after acute exposure. […]
observed-property: AUC(0-t) (µg·h/mL)
Field format: number, assumed µg·h/mL, no unit text.

Find the measured AUC(0-t) of OC1C(O)C(O)C(O)C(O)C1O (stereo not shown) and report it.
232

###

# protocol-summary: Single oral and intravenous dose pharmacokinetics, dose range-finding study in beagle dogs
# Type: in vivo, beagle dog
# test-conditions: beagle, dog, plasma; dogs, single oral dose 240 mg/kg
observed-property: AUC(0-inf)
A complete answer gives the number and then names the unit.

Find the measured AUC(0-inf) of OC1C(O)C(O)C(O)C(O)C1O (stereo not shown) [AZD-103, scyllo-inositol] and report it.
489 µg·h/mL

###

# protocol-summary: clinical
# test-conditions: male, human, in vivo, po, 500 mg
observed-property: AUC(0-t) (ng·h/mL)
Field format: number, assumed ng·h/mL, no unit text.

Find the measured AUC(0-t) of OC1C(O)C(O)C(O)C(O)C1O (stereo not shown) and report it.
29900

###

# protocol-summary: in vivo
# test-conditions: rat, po, 150 mg/kg
# Procedure: Plasma PK of a scyllo-cyclohexanehexyl compound in rats was assessed after 28 days oral dosing of 15, 50 and 150 mg/kg, administered twice daily. […] Indeed, at this dose level, the Vdss, clearance and elimination rates appeared to be reduced with repeated dosing. […] As for single doses, the scyllo-cyclohexanehexyl was absorbed rapidly, with mean tmax observed between 1.2 and 1.3 hours post-dose. […] Estimates of MRT were consistent.
observed-property: Cmax (µg/mL)
Field format: number, assumed µg/mL, no unit text.

Find the measured Cmax of OC1C(O)C(O)C(O)C(O)C1O (stereo not shown) [AZD-103, scyllo-inositol] and report it.
171

###

# protocol-summary: clinical
# test-conditions: male, human, in vivo, po, 7000 mg
observed-property: AUC(0-inf) (µg·h/mL)
Field format: number, assumed µg·h/mL, no unit text.

Find the measured AUC(0-inf) of OC1C(O)C(O)C(O)C(O)C1O (stereo not shown) and report it.
885

###

# protocol-summary: in vivo
# test-conditions: dog, po, 50 mg/kg
observed-property: half-life (h)
Field format: number, assumed h, no unit text.

Find the measured half-life of OC1C(O)C(O)C(O)C(O)C1O (stereo not shown) and report it.
2.1

###

# protocol-summary: in vivo
# test-conditions: rat, po, 15 mg/kg
observed-property: Tmax (h)
Field format: number, assumed h, no unit text.

Find the measured Tmax of OC1C(O)C(O)C(O)C(O)C1O (stereo not shown) and report it.
1.3

###

# protocol-summary: Single oral and intravenous dose pharmacokinetics, dose range-finding study in beagle dogs
# Format: in vivo, beagle dog
# test-conditions: beagle, dog, plasma, po, 240 mg/kg, dogs, single oral dose 240 mg/kg
observed-property: Tmax (h)
Field format: number, assumed h, no unit text.

Find the measured Tmax of OC1C(O)C(O)C(O)C(O)C1O (stereo not shown) and report it.
2

###

# protocol-summary: in vivo
# test-conditions: rat, po, 150 mg/kg
observed-property: AUC(0-inf) (µg·h/mL)
Field format: number, assumed µg·h/mL, no unit text.

Find the measured AUC(0-inf) of OC1C(O)C(O)C(O)C(O)C1O (stereo not shown) and report it.
615

###

# protocol-summary: Brain penetrance: plasma and CSF pharmacokinetics after single oral doses in dogs
# Assay type: in vivo, dog
# test-conditions: dog, CSF, single oral dose 240 mg/kg
observed-property: AUC(0-inf) (µg·h/mL)
Field format: number, assumed µg·h/mL, no unit text.

Find the measured AUC(0-inf) of OC1C(O)C(O)C(O)C(O)C1O (stereo not shown) and report it.
401

###

# protocol-summary: Single oral and intravenous dose pharmacokinetics, dose range-finding study in beagle dogs
# Type: in vivo, beagle dog
# test-conditions: beagle, dog, plasma; dogs, single oral dose 80 mg/kg
observed-property: CL/F (mL/min/kg)
Field format: number, assumed mL/min/kg, no unit text.

Find the measured CL/F of OC1C(O)C(O)C(O)C(O)C1O (stereo not shown) and report it.
5.63
